Origin of the recorded values: patent US20260297085A1

The compounds listed here are annotated with their IC50.
- test.system: human JAK1 kinase domain (JH1) (Homo sapiens)
- Construct: recombinantly generated catalytic kinase (also known as JH1) domain of human JAK1, JAK2, JAK3 and TYK2
- Sequence (P23458 875-1153 limits assumed): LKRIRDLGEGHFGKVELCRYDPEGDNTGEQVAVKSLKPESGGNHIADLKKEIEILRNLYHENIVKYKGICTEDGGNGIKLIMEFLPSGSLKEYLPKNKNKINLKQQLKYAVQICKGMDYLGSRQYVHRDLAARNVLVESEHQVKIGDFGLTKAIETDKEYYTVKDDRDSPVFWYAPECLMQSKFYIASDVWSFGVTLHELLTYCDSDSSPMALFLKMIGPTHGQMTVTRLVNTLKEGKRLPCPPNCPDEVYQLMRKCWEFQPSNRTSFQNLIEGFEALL
- protocol.summary: JH1 biochemical assay for JAK1 (ADP-Glo kinase assay, recombinant JH1 catalytic domain, JAK3-342 peptide, 35 μM ATP)
- setup.conditions: JH1 kinase domain, ADP-Glo
Structures can show the parent of a compound that is named as a salt.

Look over these answered cases.
INSERT INTO assay_data (compound, measured_endpoint, value_observed) VALUES
  ('CCc1ccncc1-c1cc2c(N3C[C@@H](C)[C@@](C#N)(C4CC4)C3=O)ccnn2c1 [Example 175, trifluoroacetate]', 'IC50', '5 to 10 µM'),
  ('COc1ccc(-c2cn3nccc3c(N3C[C@@H](C)[C@@](C#N)(C4CC4)C3=O)n2)nc1', 'IC50', '< 0.1 µM'),
  ('CCOCCn1cc(-c2cc3c(N4C[C@@H](C)[C@@](C#N)(C5CC5)C4=O)ccnn3c2)cn1', 'IC50', '0.1 to 1 µM'),
  ('C[C@@H]1CN(c2ccnn3cc(-c4cc[nH]n4)cc23)C(=O)[C@]1(C#N)C1CC1 [Example 66, trifluoroacetate]', 'IC50', '0.1 to 1 µM'),
  ('Cn1cc(-c2cc3c(N4CC[C@@](C#N)(C5CC5)C4=O)ccnc3[nH]2)cn1', 'IC50', '< 0.1 µM');

Request: Given the entry `C[C@@H]1CN(c2ccnn3cc(-c4ccc(F)nc4)cc23)C(=O)[C@]1(C#N)C1CC1` , report its measured IC50.
Result: 0.1 to 1 µM

Request: Please answer likewise for `COc1cc(-c2cn3nccc3c(N3C[C@@H](C)[C@@](C#N)(C4CC4)C3=O)n2)c(F)cn1`
Result: 0.1 to 1 µM

Request: Same lookup for `Cc1nc(C)c(-c2cn3nccc3c(N3C[C@@H](C)[C@@](C#N)(C4CC4)C3=O)n2)s1` , please.
Result: < 0.1 µM

###

- test.system: human JAK2 kinase domain (JH1) (Homo sapiens, UniProt O60674)
- Construct: recombinantly generated catalytic kinase (also known as JH1) domain of human JAK1, JAK2, JAK3 and TYK2
- Sequence (O60674 849-1124 limits assumed): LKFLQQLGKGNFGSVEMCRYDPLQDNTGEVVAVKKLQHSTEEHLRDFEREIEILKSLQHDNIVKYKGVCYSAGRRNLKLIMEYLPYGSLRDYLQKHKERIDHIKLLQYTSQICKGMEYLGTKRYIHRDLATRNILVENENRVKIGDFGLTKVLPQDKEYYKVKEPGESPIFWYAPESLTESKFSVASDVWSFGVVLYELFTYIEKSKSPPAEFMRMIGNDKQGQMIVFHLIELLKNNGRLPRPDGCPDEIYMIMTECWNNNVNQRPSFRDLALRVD
- protocol.summary: JH1 biochemical assay for JAK2 (ADP-Glo kinase assay, recombinant JH1 catalytic domain, JAK3-974 peptide, 15 μM ATP)
- setup.conditions: JH1 kinase domain, ADP-Glo
- Method: Compounds of the disclosure were assessed for their ability to inhibit TYK2, JAK1, JAK2, and JAK3 activity. The inhibitory properties of the compounds of the disclosure described herein can be evidenced by testing in any one of the following protocols. The kinase activity of recombinantly generated catalytic kinase (also known as JH1) domain of human JAK1, JAK2, JAK3 and TYK2 were evaluated in a plate-based assay using the ADP-Glo™ Kinase Assay platform. […]
pIC50: −log10 of the molar value. Where a name gives a salt, the structure may show the parent alone.
measured.endpoint: pIC50

INSERT INTO results (compound, measured_endpoint, value_observed) VALUES
  ('CC(=O)Nc1cccc(-c2cc3c(N4C[C@@H](C)[C@@](C#N)(C5CC5)C4=O)ccnn3c2)n1 [Example 131, trifluoroacetate]', 'pIC50', '6.00 to 7.00');

Request: Would you kindly share the measured pIC50 for C[C@@H]1CN(c2ccnn3cc(-c4cc(CO)ccn4)cc23)C(=O)[C@]1(C#N)C1CC1 [Example 148, trifluoroacetate] ?
Result: 6.00 to 7.00

Request: For C[C@@H]1CN(c2ccnn3cc(-c4cncc(C(F)(F)F)c4)cc23)C(=O)[C@]1(C#N)C1CC1 [Example 70] then?
Result: 5.30 to 6.00

Request: What do we get for C[C@@H]1CN(c2ccnn3cc(-c4ccc(N(C)C(=O)OC(C)(C)C)nc4)cc23)C(=O)[C@]1(C#N)C1CC1 [Example 95] ?
Result: 6.00 to 7.00

Request: Next record, please: C[C@@H]1CN(c2ccnn3cc(-c4cnn(C5CC(F)(F)C5)c4)cc23)C(=O)[C@]1(C#N)C1CC1 [Example 157]
Result: > 7.00

Request: Same thing, different compound: Cc1nn(C)cc1-c1cn2nccc2c(N2C[C@@H](C)[C@@](C#N)(C3CC3)C2=O)n1 [Example 208]
Result: > 7.00

###

Reported pIC50 by item:
- test.system: JAK1 kinase activity on STAT3 in TF1 cells (Homo sapiens, UniProt P23458)
- Sequence (P23458 whole entry): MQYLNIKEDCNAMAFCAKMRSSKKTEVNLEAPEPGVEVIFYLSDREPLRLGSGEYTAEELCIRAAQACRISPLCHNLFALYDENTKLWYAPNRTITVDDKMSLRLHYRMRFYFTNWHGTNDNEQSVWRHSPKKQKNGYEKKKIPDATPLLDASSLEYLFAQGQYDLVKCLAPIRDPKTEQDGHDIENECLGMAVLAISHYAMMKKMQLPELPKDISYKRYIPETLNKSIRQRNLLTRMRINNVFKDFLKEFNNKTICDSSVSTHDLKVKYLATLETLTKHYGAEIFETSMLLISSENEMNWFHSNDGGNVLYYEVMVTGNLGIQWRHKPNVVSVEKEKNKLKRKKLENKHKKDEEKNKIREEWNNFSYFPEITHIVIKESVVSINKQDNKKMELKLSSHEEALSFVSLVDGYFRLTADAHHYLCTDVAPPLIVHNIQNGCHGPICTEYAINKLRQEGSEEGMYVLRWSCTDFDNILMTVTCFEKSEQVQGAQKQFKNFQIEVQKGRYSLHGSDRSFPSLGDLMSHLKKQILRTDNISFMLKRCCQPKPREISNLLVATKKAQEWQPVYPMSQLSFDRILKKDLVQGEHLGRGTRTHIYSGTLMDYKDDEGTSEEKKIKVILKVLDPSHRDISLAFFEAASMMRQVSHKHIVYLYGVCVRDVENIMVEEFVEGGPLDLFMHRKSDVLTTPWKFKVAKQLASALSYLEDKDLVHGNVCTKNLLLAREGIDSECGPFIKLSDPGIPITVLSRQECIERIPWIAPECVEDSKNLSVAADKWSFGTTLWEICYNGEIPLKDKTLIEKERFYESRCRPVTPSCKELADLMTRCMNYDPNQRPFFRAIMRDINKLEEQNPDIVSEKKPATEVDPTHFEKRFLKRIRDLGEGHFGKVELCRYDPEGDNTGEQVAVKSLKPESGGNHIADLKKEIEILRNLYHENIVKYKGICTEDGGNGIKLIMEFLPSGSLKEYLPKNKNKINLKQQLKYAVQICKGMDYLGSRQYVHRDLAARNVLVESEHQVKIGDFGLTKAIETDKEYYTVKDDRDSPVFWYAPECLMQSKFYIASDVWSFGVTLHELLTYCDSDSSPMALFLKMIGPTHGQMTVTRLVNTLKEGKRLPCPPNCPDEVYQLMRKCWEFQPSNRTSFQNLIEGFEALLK
- protocol.summary: pSTAT3 cell assay (MSD; TF1 cells, 30 ng/mL IL-6 stimulation)
- setup.conditions: 30 ng/mL IL-6, 15 minutes
- Protocol: The inhibitory potency of compounds of the disclosure against the JAK1 kinase activity on STAT3 was evaluated using an MSD-platform plate-based assay format. […] Cells were lysed and pSTAT3 levels were quantitated using an MSD plate-based assay with anti-STAT3 antibodies. […]
pIC50: −log10 of the molar value. Structures can show the parent of a compound that is named as a salt.

Look over these answered cases.
INSERT INTO results (molecule, value_observed) VALUES
  ('Cn1cc(-c2cc3c(N4C[C@@H](C(F)F)[C@@](C#N)(C5CC5)C4=O)ccnn3c2)cn1 (racemic)', '< 5.00'),
  ('C[C@@H]1CN(c2nc(-c3cccnc3)cn3nccc23)C(=O)[C@]1(C#N)C1CC1', '5.30 to 6.00');

Request: Given the entry C[C@@H]1CN(c2nc(-c3cnc4c(c3)OCC(=O)N4C)cn3nccc23)C(=O)[C@]1(C#N)C1CC1 [Example 235, trifluoroacetate] , report its measured pIC50.
Result: < 5.00

Request: Next record, please: C[C@@H]1CN(c2ccnn3cc(-c4cnc(C(F)F)s4)cc23)C(=O)[C@]1(C#N)C1CC1 [Example 101, trifluoroacetate]
Result: 5.30 to 6.00

Request: Quick one: `CC(C)n1cc(-c2cc3nccc(N4C[C@@H](C)[C@@](C#N)(C5CC5)C4=O)c3o2)cn1`
Result: 5.30 to 6.00

Request: For C[C@@H]1CN(c2ccnn3cc(-c4cnn([C@H]5CC5(F)F)c4)cc23)C(=O)[C@]1(C#N)C1CC1 (single isomer, unassigned) then?
Result: 5.30 to 6.00

Request: // query: `CC(C)n1cc(-c2cn3ncc(F)c3c(N3C[C@@H](C)[C@@](C#N)(C4CC4)C3=O)n2)cn1`
Result: 6.00 to 7.00

###

- test.system: JAK1 kinase activity on STAT3 in TF1 cells (Homo sapiens)
- protocol.summary: pSTAT3 cell assay (MSD; TF1 cells, 30 ng/mL IL-6 stimulation)
- setup.conditions: 30 ng/mL IL-6, 15 minutes
Where a name gives a salt, the structure may show the parent alone.
measured.endpoint: IC50

Use these answered entries as a reference point.
INSERT INTO assay_data (compound, value_observed) VALUES
  ('C[C@@H]1CN(c2nc(-c3cncc(O)c3)cn3nccc23)C(=O)[C@]1(C#N)C1CC1 [Example 258, trifluoroacetate]', '1000 to 5000 nM'),
  ('C[C@@H]1CN(c2nc(-c3cnn(-c4cccnc4)c3)cn3nccc23)C(=O)[C@]1(C#N)C1CC1', '100 to 1000 nM'),
  ('C[C@@H]1CN(c2ccnn3cc(-c4ccc(S(C)(=O)=O)nc4)cc23)C(=O)[C@]1(C#N)C1CC1', '5000 to 10000 nM'),
  ('C[C@@H]1CN(c2ccnn3cc(-c4cn5c(n4)CCC5)cc23)C(=O)[C@]1(C#N)C1CC1 [Example 106, trifluoroacetate]', '> 10000 nM'),
  ('C[C@@H]1CN(c2nc(-c3cnn(C4(C)COC4)c3)cn3ncc(F)c23)C(=O)[C@]1(C#N)C1CC1', '100 to 1000 nM');

Request: Checklist item: IC50 tested on JAK1 kinase activity on STAT3 in TF1 cells (Homo sapiens), entry `C[C@@H]1CN(c2ccnn3cc(-c4cnn(-c5ccccn5)c4)cc23)C(=O)[C@]1(C#N)C1CC1` , value?
Result: 1000 to 5000 nM

Request: Now the compound `C[C@@H]1CN(c2nc(-c3cnn4c3COCC4)cn3ncc(F)c23)C(=O)[C@]1(C#N)C1CC1`
Result: 1000 to 5000 nM

###

- test.system: Tyk2 kinase activity on STAT4 in NK92 cells (Homo sapiens, UniProt P29597)
- Sequence (P29597 whole entry): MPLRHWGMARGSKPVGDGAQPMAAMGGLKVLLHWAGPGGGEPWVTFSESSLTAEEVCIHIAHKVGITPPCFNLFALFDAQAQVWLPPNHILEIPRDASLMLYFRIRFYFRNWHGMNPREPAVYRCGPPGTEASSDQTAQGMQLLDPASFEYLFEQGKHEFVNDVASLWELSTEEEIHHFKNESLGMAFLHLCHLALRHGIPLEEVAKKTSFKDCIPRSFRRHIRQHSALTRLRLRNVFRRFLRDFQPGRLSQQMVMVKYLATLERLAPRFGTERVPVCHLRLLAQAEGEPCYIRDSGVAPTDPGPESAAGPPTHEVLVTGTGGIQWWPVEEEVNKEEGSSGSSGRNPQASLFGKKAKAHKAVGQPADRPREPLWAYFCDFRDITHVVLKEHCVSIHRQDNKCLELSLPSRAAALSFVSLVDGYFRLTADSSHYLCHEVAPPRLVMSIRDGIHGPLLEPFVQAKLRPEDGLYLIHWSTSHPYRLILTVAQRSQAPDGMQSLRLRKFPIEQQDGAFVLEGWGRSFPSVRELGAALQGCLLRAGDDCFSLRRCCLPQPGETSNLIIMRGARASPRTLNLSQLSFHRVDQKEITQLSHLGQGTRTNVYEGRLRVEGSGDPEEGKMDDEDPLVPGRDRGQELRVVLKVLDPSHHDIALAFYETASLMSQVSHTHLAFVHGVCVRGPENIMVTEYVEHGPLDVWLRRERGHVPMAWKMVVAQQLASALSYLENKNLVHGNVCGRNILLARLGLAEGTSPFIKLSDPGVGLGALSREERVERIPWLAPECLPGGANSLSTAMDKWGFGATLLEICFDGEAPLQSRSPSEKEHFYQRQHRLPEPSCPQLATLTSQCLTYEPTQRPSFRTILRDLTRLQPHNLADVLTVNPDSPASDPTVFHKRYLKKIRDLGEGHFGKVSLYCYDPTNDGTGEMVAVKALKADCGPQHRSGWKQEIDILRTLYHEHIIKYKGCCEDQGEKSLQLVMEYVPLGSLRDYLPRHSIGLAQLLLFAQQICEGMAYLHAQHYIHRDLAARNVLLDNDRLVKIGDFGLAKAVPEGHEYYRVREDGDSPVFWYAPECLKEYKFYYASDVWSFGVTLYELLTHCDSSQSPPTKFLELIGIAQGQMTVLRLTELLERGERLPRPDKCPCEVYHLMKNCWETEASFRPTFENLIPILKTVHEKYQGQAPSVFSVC
- protocol.summary: pSTAT4 cell assay (MSD; NK92 cells, 30 ng/mL IL2 stimulation)
- setup.conditions: 30 ng/mL IL2, 15 minutes
pIC50: −log10 of the molar value.
measured.endpoint: pIC50

Below, 6 compounds whose answers are already recorded.
INSERT INTO assay_data (compound_structure, value_observed) VALUES
  ('C[C@@H]1CN(c2ccnc3[nH]c(-c4cnn(C)c4)cc23)C(=O)[C@]1(C#N)C1CC1', '7.70 to 8.30'),
  ('C[C@@H]1CN(c2ccnn3cc(-n4cc(C(F)F)cn4)cc23)C(=O)[C@]1(C#N)C1CC1', '< 7.00'),
  ('C[C@@H]1CN(c2ccnc3cc(-c4cnn(C)c4)oc23)C(=O)[C@]1(C#N)C1CC1', '7.00 to 7.30'),
  ('C[C@@H]1CN(c2ccnn3cc(-c4ccc5nccn5c4)cc23)C(=O)[C@]1(C#N)C1CC1', '7.30 to 7.70'),
  ('C[C@@H]1CN(c2nc(-c3cnn(C4CC4)c3)cc3ncsc23)C(=O)[C@]1(C#N)C1CC1', '7.30 to 7.70'),
  ('C[C@@H]1CN(c2cc(-c3cnn(C)c3)cc3ncsc23)C(=O)[C@]1(C#N)C1CC1', '7.00 to 7.30');

Next:
Request: What pIC50 value was documented for this compound, `C[C@@H]1CN(c2nc(-c3cnn([C@H]4C[C@@](F)(C#N)C4)c3)cn3ncc(F)c23)C(=O)[C@]1(C#N)C1CC1` ?
Result: < 7.00
